Recorded protein stability index, one value per entry.
# Test system: Saccharomyces cerevisiae
# measurementNotes: protein stability index of tFT-peptide fusion (C-terminal peptide) (PSI (0-1 scale)); higher = more stable (slower turnover)
# testContext: genetic background: das1 deletion; temperature: 30 C
The reply should be a number, written without any unit.

>  <polymerSequence>
REVLEQEGRRIE [NBL1 C-terminal 12 aa]

>  <measured>
0.69

$$$$
>  <polymerSequence>
GIPEEFKEFTEV [MND1 C-terminal 12 aa]

>  <measured>
0.702

$$$$
>  <polymerSequence>
ATTSLNNPYGFR [TOS7 C-terminal 12 aa]

>  <measured>
0.675

$$$$
>  <polymerSequence>
YPAREGEVLRPN [AKR2 C-terminal 12 aa]

>  <measured>
0.675

$$$$
>  <polymerSequence>
EALVKQITSVKQ [SCC4 C-terminal 12 aa]

>  <measured>
0.697

$$$$

Requested field: protein stability index. Item: LGKGGKGKRKMK [LSO2 C-terminal 12 aa]
0.705

Requested field: protein stability index. Item: KGISIVESTFIS [YDR222W C-terminal 12 aa]
0.704

Requested field: protein stability index. Item: DFVYNEEDFEKL [NOT5 C-terminal 12 aa]
0.718

Requested field: protein stability index. Item: SESLSDSDLEIL [RAD24 C-terminal 12 aa]
0.711
